System: Plasmodium falciparum 3D7
assay_text: In vitro growth inhibition assay (SYBR Green I), strain 3D7
Assay type: cell-based
test_parameters: Plasmodium falciparum, 3D7; chloroquine-sensitive strain; 72 hours; average of three ± SD; read-out: EC50, growth inhibition, P. falciparum 3D7
Let's look at some compounds and their measured EC50.
Give the number; µM is assumed, so skip it.

Reported EC50 of `COc1ccc(-c2nc(-c3cc(C(F)(F)F)cc(C(F)(F)F)c3)n(Cc3ccc(C(N)=O)cc3)c2-c2ccc(OC)cc2)cc1` : 6.8

Reported EC50 of `CN(NC(=O)CC(=O)NN(C)C(=S)c1ccccc1)C(=S)c1ccccc1` : 0.05

###

target_or_system: PfGRP78-NBD wt (Plasmodium falciparum)
Construct: His-tag (pET28-MHL, TEV site) (N, cleaved yes); made in house; host or cells: E. coli BL21(DE3)
Sequence (Q05866 26-404): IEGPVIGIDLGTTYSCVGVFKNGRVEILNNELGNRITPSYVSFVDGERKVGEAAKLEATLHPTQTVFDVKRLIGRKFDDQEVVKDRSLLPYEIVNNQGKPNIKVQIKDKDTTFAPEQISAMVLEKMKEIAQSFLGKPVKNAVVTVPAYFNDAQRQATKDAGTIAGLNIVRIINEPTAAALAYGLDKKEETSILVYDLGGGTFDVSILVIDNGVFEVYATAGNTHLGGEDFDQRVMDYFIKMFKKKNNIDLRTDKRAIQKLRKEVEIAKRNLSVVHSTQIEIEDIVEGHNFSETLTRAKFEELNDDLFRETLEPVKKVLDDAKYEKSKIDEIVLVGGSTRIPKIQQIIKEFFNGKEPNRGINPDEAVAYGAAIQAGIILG
assay_text: biochemical
Format: binding
readout: Kd (µM)
Give the number; µM is assumed, so skip it.

The following molecules have reported results that may help.
> print(dat)
                                   molecule  number
1  CCn1c(=O)/c(=C2\Sc3ccccc3N2C)s/c1=C\c1cccc[n+]1CC [MKT-077]    16.4
2  COc1ccc(-c2nc(-c3cc(C(F)(F)F)cc(C(F)(F)F)c3)n(Cc3ccc(C(N)=O)cc3)c2-c2ccc(OC)cc2)cc1 [Apoptozole]    4.27

Shifting focus to the molecule that follows.
Reported Kd of N#Cc1ccc(COCC2OC(n3c(NCc4ccc(Cl)c(Cl)c4)nc4c(N)ncnc43)C(O)C2O)cc1 (stereo not drawn) [VER-155008] : 164

###

target_or_system: huGRP78-NBD (Homo sapiens, UniProt P11021)
Construct: PfGRP78-NBD wild type and mutant, and human GRP78-NBD were buffered in 25 mM hepes pH 7.5
Sequence (P11021 26-407 limits assumed): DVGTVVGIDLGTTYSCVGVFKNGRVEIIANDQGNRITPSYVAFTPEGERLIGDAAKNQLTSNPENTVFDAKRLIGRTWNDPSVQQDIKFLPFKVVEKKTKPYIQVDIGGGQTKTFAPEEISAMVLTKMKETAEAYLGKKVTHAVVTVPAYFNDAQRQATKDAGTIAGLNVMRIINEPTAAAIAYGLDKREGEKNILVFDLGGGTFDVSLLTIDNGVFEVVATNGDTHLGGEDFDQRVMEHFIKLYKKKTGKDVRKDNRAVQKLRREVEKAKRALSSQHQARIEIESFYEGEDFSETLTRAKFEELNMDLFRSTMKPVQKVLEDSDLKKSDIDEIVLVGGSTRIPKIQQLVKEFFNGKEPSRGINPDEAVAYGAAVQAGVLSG
assay_text: SPR (Biacore) binding to human GRP78-NBD
readout: Kd (µM)
Give the number; µM is assumed, so skip it.

Reported Kd of CCn1c(=O)/c(=C2\Sc3ccccc3N2C)s/c1=C\c1cccc[n+]1CC [MKT-077] : 16

###

Test system: HCT-116
assay_text: Growth inhibition of human cell line
Assay type: cell-based
test_parameters: HCT-116; human cell line; average of three ± SD; read-out: EC50, growth inhibition, HCT-116
Method: Growth inhibition experiments were conducted at least three times per compound. […] The statistical analysis was performed with the software Prism 7 (GraphPad Software, San Diego, CA).
Let's look at some compounds and their measured EC50.
Give the number; µM is assumed, so skip it.

> print(dat)
                                   compound  number
1  COc1ccc(-c2nc(-c3cc(C(F)(F)F)cc(C(F)(F)F)c3)n(Cc3ccc(C(N)=O)cc3)c2-c2ccc(OC)cc2)cc1 [Apoptozole]    16.5

Shifting focus to the compound that follows.
Reported EC50 of N#Cc1ccc(COCC2OC(n3c(NCc4ccc(Cl)c(Cl)c4)nc4c(N)ncnc43)C(O)C2O)cc1 (centres unmarked) [VER-155008] : 15.7

###

Test system: Plasmodium falciparum 3D7
assay_text: In vitro growth inhibition assay (SYBR Green I), strain 3D7
Format: cell-based
test_parameters: Plasmodium falciparum, 3D7, 72 h, read-out: EC50, growth inhibition, P. falciparum 3D7
Let's look at some compounds and their measured pEC50.
pEC50 field: float, defined as -log10 of concentration (mol/L).

> print(dat)
                                   compound           target.or.system  number
1  CCN(CC)CCCC(C)Nc1ccnc2cc(Cl)ccc12 (stereo not shown) [CQ, chloroquine]  Plasmodium falciparum 3D7    7.30

Reported pEC50 of CCn1c(=O)/c(=C2\Sc3ccccc3N2C)s/c1=C\c1cccc[n+]1CC [MKT-077] : 7.15

Reported pEC50 of C=Cc1cc(OC)c2c(c1)c(=O)oc1c2cc(OC)c2c(O)ccc(C3OC(C(C)O)C(O)C3O)c21 (stereo not shown) [Gilvocarcin V] : 7.70

Reported pEC50 of N#Cc1ccc(COCC2OC(n3c(NCc4ccc(Cl)c(Cl)c4)nc4c(N)ncnc43)C(O)C2O)cc1 (stereo not shown) [VER-155008] : 4.09

###

target_or_system: PfGRP78-NBD mut (Y39F) (Plasmodium falciparum, UniProt Q05866, Y39F)
Construct: His-tag (pET28-MHL, TEV site) (N, cleaved yes)
assay_text: SPR (Biacore) binding to PfGRP78-NBD Y39F mutant
test_parameters: ± standard error, 25 °C, read-out: affinity constant (Kd) determined by SPR, PfGRP78-NBD mut
readout: Kd (µM)
Give the number; µM is assumed, so skip it.

Reported Kd of Nc1ncnc2c1ncn2[C@@H]1O[C@H](COP(=O)(O)OP(=O)(O)OP(=O)(O)O)[C@@H](O)[C@H]1O [ATP] : 312
